assaySystem: Transitional endoplasmic reticulum ATPase (Homo sapiens)
protocolText: p97-dependent UbG76V-GFP degradation inhibitors in cells, SAR follow-up, imaging, HeLa, round 3 (AID 504649)
IC50 values, listed per item

{"chemSmiles": "COc1cccc2c(NCc3ccccc3)nc(N3CCOc4ccccc43)nc12", "IC50": "3.3 µM"}

// next item, IC50 requested
Fill in: IC50 of `COc1ccc(-c2cccc3c(NCc4ccccc4)nc(N4CCOc5ccccc54)nc23)cc1` is ___ 9 µM

From: PubChem BioAssay AID504649
